tested on: bacterial pathogens resistant against quinolones antibiotics; experiment: MIC against quinolone-resistant bacterial pathogens (Table 5); type: cell-based; conditions: Staphylococcus aureus, MRSA, read-out: MICs, EMRSA16 Staphylococcus aureus (MRSA) SSCmec type 2, GP33
Where a name gives a salt, the structure may show the parent alone.
READOUT_NAME: MIC (mg/L)
Provide the reading as a plain figure in mg/L.

{"COMPOUND": "Cc1c(-c2ccc(O)cc2)ccn2c(=O)c(C(=O)O)cc(C3CC3)c12 [Example 46 K salt]", "READOUT_NAME": "MIC", "QUANTITATIVE_RESULT": 0.06}
{"COMPOUND": "Cc1c(-c2ccc(N)nc2)ccn2c(=O)c(C(=O)O)cc(C3CC3)c12 [Example 21 K salt]", "READOUT_NAME": "MIC", "QUANTITATIVE_RESULT": 0.25}
{"COMPOUND": "Cc1c(-c2ccc(N)c(F)c2)ccn2c(=O)c(C(=O)O)cc(C3CC3)c12 [Example 2 K salt]", "READOUT_NAME": "MIC", "QUANTITATIVE_RESULT": 0.12}
{"COMPOUND": "Cc1c(-c2ccc3[nH]ncc3c2)ccn2c(=O)c(C(=O)O)cc(C3CC3)c12 [Example 23 K salt]", "READOUT_NAME": "MIC", "QUANTITATIVE_RESULT": 0.03}

Next item in the queue.
Please report MIC with bacterial pathogens resistant against quinolones antibiotics for item Cc1c(-c2cc(F)c(N)cc2F)ccn2c(=O)c(C(=O)O)cc(C3CC3)c12 [Example 28 K salt] .
0.06

----------
tested on: bacterial pathogens resistant against quinolones antibiotics; assay: MIC against quinolone-resistant bacterial pathogens (Table 5); format: cell-based; conditions: Staphylococcus aureus, read-out: MICs, Staphylococcus aureus multi-drug-resistant clinical isolate, GP5
Counter-ions that a name gives are not always drawn.
// reported MIC per item
Number only, in µg/mL; omit the unit.

{"COMPOUND": "Cc1c(-c2ccc(O)cc2)ccn2c(=O)c(C(=O)O)cc(C3CC3)c12 [Example 46 K salt]", "MIC [µg/mL]": 0.06}

// fetch MIC given entry Cc1c(-c2ccc3[nH]ncc3c2)ccn2c(=O)c(C(=O)O)cc(C3CC3)c12 [Example 23 K salt]
0.03

Query MIC for Cc1c(-c2cc(F)c(N)cc2F)ccn2c(=O)c(C(=O)O)cc(C3CC3)c12 [Example 28 K salt]
0.06

Find the measured MIC of Cc1c(-c2ccc(N)c(F)c2)ccn2c(=O)c(C(=O)O)cc(C3CC3)c12 [Example 2 K salt] and report it.
0.06

Return MIC for the following compound: Cc1c(-c2ccc(N)nc2)ccn2c(=O)c(C(=O)O)cc(C3CC3)c12 [Example 21 K salt]
0.25
